Parameter: GI50. Scope: all listed entries.
Tested on: RXF 393 renal
measurement protocol: NCI tumour cell line growth inhibition, 48 h

| chemical string | GI50 |
| --- | --- |
| COc1ccc(F)cc1C(=O)c1cnc(NC2CCN(S(C)(=O)=O)CC2)nc1N | 2750 nM |
| CCCC(=O)NNc1[nH]c(-c2ccc(OC)cc2)cc1C(=O)OCC | 22000 nM |
| CN1CCN(Cc2ccc(NC(=O)c3cncc(C#Cc4c(N)ncc5cc(F)ccc45)c3)cc2C(F)(F)F)CC1 | 836 nM |
| Cn1cnc2c(NCc3ccccc3)nc(NCCO)nc21 | 17700 nM |
| O=C1/C(=C/c2ccc(Cl)cc2)CN(C(=O)C(Cl)Cl)C/C1=C\c1ccc(Cl)cc1 | 180 nM |
| COc1ccc(-c2nc(-c3nc4cc(C)c(C)cc4[nH]3)cc3c2[nH]c2ccccc23)cc1 | 1720 nM |
